EXPERIMENTAL SYSTEM: UniProtKB P30613
ASSAY INFO: PKR Mutant Assay, dose response (AC50), wild type PKR enzyme
Type: biochemical
TEST SETTINGS: wild type PKR enzyme
Examples of molecules with documented AC50 follow.

- CCS(=O)(=O)CC1(O)CCN(C(=O)c2ccc(NS(=O)(=O)c3cccc4scnc34)cc2)CC1 [Compound 484]: 1010 to 10000 nM
- O=C(c1ccc(NS(=O)(=O)c2cccc3scnc23)cc1)N1CCC(O)(C2CCC(O)CC2)CC1 (stereo not shown) [Compound 501]: 101 to 1000 nM
- Cc1cc(CC2(O)CCN(C(=O)c3ccc(NS(=O)(=O)c4cccc5nccnc45)cc3)CC2)sn1 [Compound 511]: < 100 nM
- Cc1cc(C2(O)CCN(C(=O)c3ccc(NS(=O)(=O)c4cccc5nccnc45)cc3)CC2)sn1 [Compound 518]: < 100 nM
- Nc1cnc2c(S(=O)(=O)Nc3ccc(C(=O)N4CCC(O)(CCCC(F)(F)F)CC4)cc3)cccc2n1 [Compound 482]: < 100 nM
- Cn1nccc1CC1(O)CCN(C(=O)c2ccc(NS(=O)(=O)c3cccc4nccnc34)cc2)CC1 [Compound 508]: < 100 nM

Pending molecule:
Q) Recorded AC50 for CS(=O)(=O)CCC1(O)CCN(C(=O)c2ccc(NS(=O)(=O)c3cccc4nccnc34)cc2)CC1 [Compound 470] , please?
A) 1010 to 10000 nM

----------
EXPERIMENTAL SYSTEM: PKR R532W (Homo sapiens, UniProt P30613, R532W)
Sequence (P30613 whole entry R532W): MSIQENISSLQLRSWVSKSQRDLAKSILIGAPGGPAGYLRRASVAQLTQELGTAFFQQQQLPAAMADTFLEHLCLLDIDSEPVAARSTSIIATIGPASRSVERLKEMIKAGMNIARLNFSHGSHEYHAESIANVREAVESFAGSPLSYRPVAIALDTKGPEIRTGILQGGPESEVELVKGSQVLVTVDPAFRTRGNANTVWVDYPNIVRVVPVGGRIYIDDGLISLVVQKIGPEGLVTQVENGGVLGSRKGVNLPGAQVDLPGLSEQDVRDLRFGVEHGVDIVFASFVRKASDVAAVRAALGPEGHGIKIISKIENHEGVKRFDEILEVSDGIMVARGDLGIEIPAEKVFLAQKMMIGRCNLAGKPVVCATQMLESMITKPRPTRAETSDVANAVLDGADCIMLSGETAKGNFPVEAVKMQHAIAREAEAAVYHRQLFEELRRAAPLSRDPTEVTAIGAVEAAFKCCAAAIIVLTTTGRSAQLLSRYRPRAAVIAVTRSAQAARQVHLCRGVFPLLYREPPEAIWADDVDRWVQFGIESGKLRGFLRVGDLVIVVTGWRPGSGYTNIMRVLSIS
ASSAY INFO: PKR Mutant Assay, dose response (AC50), PKR R532W
Type: biochemical
TEST SETTINGS: PKR R532W mutant enzyme
Method: • PKR or PKR mutant enzyme solution was diluted in assay buffer. • 2 μL of test compound was added into wells first, and then 180 μL reaction mix was added. • Reactions mixture with test compound was assembled except for ADP, and plates were stored for 60 minutes at room temperature. • 20 uL ADP was added to start reaction at room temperature and reaction progress was measured as changes in absorbance at 340 nm wavelength at room temperature. […]
Examples of molecules with documented AC50 follow.

Would you please look over these solved cases?
• CC(C)(O)CCCC1(O)CCN(C(=O)c2ccc(NS(=O)(=O)c3cccc4nccnc34)cc2)CC1 = > 10 µM
• CCn1cc(CC2(O)CCN(C(=O)c3ccc(NS(=O)(=O)c4cccc5scnc45)cc3)CC2)cn1 = 1.01 to 10 µM
• CC(F)(F)CCC1(O)CCN(C(=O)c2ccc(NS(=O)(=O)c3cccc4scnc34)cc2OC(F)F)CC1 = < 0.1 µM

Q) Recorded AC50 for CC(C)CC1(O)CCN(C(=O)c2ccc(NS(=O)(=O)c3cccc4ncc(O)nc34)cc2)CC1 , please?
A) > 10 µM

Q) Recorded AC50 for CC1(O)CCC(C2(O)CCN(C(=O)c3ccc(NS(=O)(=O)c4cccc5nccnc45)cc3)CC2)CC1 (stereo not shown) , please?
A) 0.101 to 1 µM

Q) Recorded AC50 for O=C1NCCC1CC1(O)CCN(C(=O)c2ccc(NS(=O)(=O)c3cccc4scnc34)cc2)CC1 (stereo not shown) , please?
A) 1.01 to 10 µM

Q) Recorded AC50 for CC(C)CC1(O)CCN(C(=O)c2ccc(NS(=O)(=O)c3cccc4[nH]cnc34)cc2)CC1 , please?
A) > 10 µM

Every entry's value here was drawn from patent US20160046579A1.
